test system: Tov21G; experiment: cells; conditions: Homo sapiens, TOV21G, 144 h, read-out: AB8939
REPORTED_ENDPOINT: IC50 (nM)
One number for each entry, in nM.

Reported IC50 of CCOCc1ccc(C)c(Nc2ncc(-c3ccc(N4CCNC4=O)cc3)o2)c1 : 8

###

test system: PANC-1; assay: cells; settings: Homo sapiens, PANC-1, 144 h, read-out: AB8939
REPORTED_ENDPOINT: IC50 (nM)
Answers are plain numbers, in nM.

// assay PANC-1, entry CCOCc1ccc(C)c(Nc2ncc(-c3ccc(N4CCNC4=O)cc3)o2)c1 , IC50 value = 1

###

test system: SK-N-MC; assay: cells; settings: Homo sapiens, SK-N-MC, 144 h, read-out: AB8939
REPORTED_ENDPOINT: IC50 (nM)
Numbers only, in nM.

Measured IC50 (SK-N-MC), entry CCOCc1ccc(C)c(Nc2ncc(-c3ccc(N4CCNC4=O)cc3)o2)c1 : 1

###

system: CHRF; assay: cells; design: species or system CMK; conditions: 72 h, read-out: Doxorubicin (IC50 nM)
REPORTED_ENDPOINT: IC50 (nM)
Give bare numbers, in nM.

// IC50 value for COc1cccc2c1C(=O)c1c(O)c3c(c(O)c1C2=O)C[C@@](O)(C(=O)CO)C[C@@H]3O[C@H]1C[C@H](N)[C@H](O)[C@H](C)O1 : 681

###

tested on: TG-LAM-134-P0; assay: cells; design: species or system primary AML patient blasts; details: 48 h, read-out: IC50 (µM) / AB8939
REPORTED_ENDPOINT: IC50 (µM)
Numbers only, in µM.

// IC50 lookup, compound = CCOCc1ccc(C)c(Nc2ncc(-c3ccc(N4CCNC4=O)cc3)o2)c1 , result: 0.08

###

test system: TG-LAM-144-P0; assay: cells; design: species or system primary AML patient blasts; details: 48 h, read-out: IC50 (µM) / AB8939
REPORTED_ENDPOINT: IC50
Please provide the amount together with its unit, number first.

IC50 for CCOCc1ccc(C)c(Nc2ncc(-c3ccc(N4CCNC4=O)cc3)o2)c1 is 0.38 µM

###

system: Karpas-299; assay: cells; conditions: Homo sapiens, KARPAS-299, 144 h, read-out: Lexibulin (CYT997)
REPORTED_ENDPOINT: pIC50
Numbers only, as −log10 of the molar value.

CCC[C@H](Nc1nc(-c2ccc(NC(=O)NCC)c(OC)c2)ncc1C)c1cccnc1 [Lexibulin] yielded pIC50 of 8.40

###

test system: Tov21G; assay: cells; settings: Homo sapiens, TOV21G, 144 h, read-out: Lexibulin (CYT997)
REPORTED_ENDPOINT: IC50

Lab book: IC50 of CCC[C@H](Nc1nc(-c2ccc(NC(=O)NCC)c(OC)c2)ncc1C)c1cccnc1 noted as 13 nM

###

system: CMK; assay: cells; parameters: species or system CHRF; details: Homo sapiens, 72 h, read-out: AB8939 (IC50 nM)
REPORTED_ENDPOINT: IC50 (nM)
Give bare numbers, in nM.

The recorded IC50 for entry CCOCc1ccc(C)c(Nc2ncc(-c3ccc(N4CCNC4=O)cc3)o2)c1 equals 5.68

###

system: NOMO-1; assay: cells; conditions: Homo sapiens, NOMO-1, 144 h, read-out: Lexibulin (CYT997)
REPORTED_ENDPOINT: pIC50
One number for each entry, as −log10 of the molar value.

// CCC[C@H](Nc1nc(-c2ccc(NC(=O)NCC)c(OC)c2)ncc1C)c1cccnc1 [Lexibulin] : pIC50 value = 6.55
